This collection of values is drawn from patent US20250361253A1.

Molecular target: mSTING (Mus musculus)
Assay: ISG reporter induction in 293-Dual mSTING reporter cells (QUANTI-Blue)
Settings: 293-Dual mSTING cells, overnight incubation
pEC50: −log10 of the molar value.

molecule: COc1cc2sc(C(=O)CCP(=O)(O)O)cc2c(F)c1OCCCOc1c(OC)cc2sc(C(=O)CC(C)(C)C(=O)O)cc2c1F
tested target: mSTING (Mus musculus)
pEC50: ≥ 7.30
--
molecule: COc1cc2sc(C(=O)CC(C)(C)C(=O)O)cc2c(F)c1OCCCOc1ccc2cc(C(=O)CCC(=O)O)ccc2c1F
tested target: mSTING (Mus musculus)
pEC50: < 6.82
--
molecule: COc1cc2sc(C(=O)CC(C)(C)C(=O)O)cc2c(F)c1OCCCOc1c(OC)cc2sc(C(=O)CC(C)(C)P(=O)(O)O)cc2c1F
tested target: mSTING (Mus musculus)
pEC50: < 6.82
--
molecule: COc1cc2cc(C(=O)CCC(=O)O)ccc2c(F)c1OCCCOc1c(OC)cc2sc(C(=O)CC(C)(C)C(=O)O)cc2c1F
tested target: mSTING (Mus musculus)
pEC50: < 6.82
--
molecule: COc1cc2sc(C(=O)CCS(=O)(=O)O)cc2c(F)c1OCCCOc1c(OC)cc2sc(C(=O)CC(C)(C)C(=O)O)cc2c1F
tested target: mSTING (Mus musculus)
pEC50: ≥ 7.30
--
molecule: COc1cc2sc(C(=O)CC(C)(C)C(=O)O)cc2c(F)c1OCCCOc1c(OC)cc2sc(C(=O)CP(=O)(O)O)cc2c1F
tested target: mSTING (Mus musculus)
pEC50: ≥ 7.30
--
molecule: COC(=O)C(C)(C)CC(=O)c1cc2c(F)c(OCCCOc3c(OC)cc4sc(C(=O)CP(=O)(O)O)cc4c3F)c(OC)cc2s1
tested target: mSTING (Mus musculus)
pEC50: 6.82 to 7.30
--
molecule: COc1cc2sc(C(=O)CC(C)(C)C(=O)O)cc2c(F)c1OCCCOc1c(OC)cc2sc(C(=O)CS(=O)(=O)O)cc2c1F
tested target: mSTING (Mus musculus)
pEC50: 6.82 to 7.30
--
molecule: COc1cc2sc(C(=O)CC(C)(C)C(=O)O)cc2c(F)c1OCCCOc1c(OC)cc2sc(C3CC3CC(=O)O)cc2c1F (stereo not shown)
tested target: mSTING (Mus musculus)
pEC50: 6.82 to 7.30
--
molecule: COc1cc2sc(CCP(=O)(O)O)cc2c(F)c1OCCCOc1c(OC)cc2sc(C(=O)CC(C)(C)C(=O)O)cc2c1F
tested target: mSTING (Mus musculus)
pEC50: < 6.82
--
molecule: COc1cc2sc(C(=O)CCC(=O)O)cc2c(F)c1OCCCOc1c(OC)cc2sc(C(=O)CCP(=O)(O)O)cc2c1F
tested target: mSTING (Mus musculus)
pEC50: ≥ 7.30
--
molecule: COc1cc2sc(/C=C/CC(=O)O)cc2c(F)c1OCCCOc1c(OC)cc2sc(/C=C/CC(=O)O)cc2c1F
tested target: mSTING (Mus musculus)
pEC50: < 6.82
--
molecule: COC(=O)C(C)(C)CC(=O)c1cc2c(F)c(OCCCOc3c(OC)cc4sc(C(=O)CS(=O)(=O)O)cc4c3F)c(OC)cc2s1
tested target: mSTING (Mus musculus)
pEC50: 6.82 to 7.30

====

Target: mSTING (Mus musculus)
Sequence (Q3TBT3 1-378): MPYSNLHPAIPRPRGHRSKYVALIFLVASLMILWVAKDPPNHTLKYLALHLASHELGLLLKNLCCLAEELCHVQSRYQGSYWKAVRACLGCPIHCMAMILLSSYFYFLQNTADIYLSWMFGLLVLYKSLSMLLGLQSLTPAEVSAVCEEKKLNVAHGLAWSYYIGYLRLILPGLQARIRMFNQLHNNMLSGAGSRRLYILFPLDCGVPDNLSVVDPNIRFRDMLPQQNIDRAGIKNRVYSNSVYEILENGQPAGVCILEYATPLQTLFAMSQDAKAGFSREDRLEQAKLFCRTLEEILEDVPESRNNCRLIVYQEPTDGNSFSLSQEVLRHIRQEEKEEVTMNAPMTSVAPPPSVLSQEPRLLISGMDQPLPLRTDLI
Experiment: ISG reporter induction in 293-Dual mSTING reporter cells (QUANTI-Blue)
Conditions: 293-Dual mSTING cells, overnight incubation
pEC50: −log10 of the molar value.

mol: COc1cc2sc(C(=O)CC(C)(C)C(=O)O)cc2c(F)c1OCCCOc1c(OC)cc2sc(C(=O)CP(=O)(OC)OC)cc2c1F
pEC50: 6.82 to 7.30

mol: COC(=O)C(C)(C)CC(=O)c1cc2c(F)c(OCCCOc3c(OC)cc4sc(C(=O)CC(C)(C)P(=O)(O)O)cc4c3F)c(OC)cc2s1
pEC50: < 6.82

mol: COC(=O)C(C)(C)CC(=O)c1cc2c(F)c(OCCCOc3c(OC)cc4sc(C(=O)CP(=O)(OC)OC)cc4c3F)c(OC)cc2s1
pEC50: < 6.82

mol: COc1cc2sc(C(=O)CC(C)(C)C(=O)O)cc2c(C)c1OCCCOc1c(OC)cc2sc(C(=O)CP(=O)(O)O)cc2c1C
pEC50: < 6.82

mol: COc1cc2sc(C(=O)CCC(=O)O)cc2c(F)c1OCCCOc1c(OC)cc2sc(C(=O)CP(=O)(O)O)cc2c1F
pEC50: ≥ 7.30

mol: COc1cc2nc(C(=O)CCC(=O)O)ccc2c(F)c1OCCCOc1c(OC)cc2sc(C(=O)CC(C)(C)C(=O)O)cc2c1F
pEC50: ≥ 7.30

====

Molecular target: hSTING-R232 (Homo sapiens, UniProt Q86WV6, H232R)
Sequence (Q86WV6 whole entry H232R): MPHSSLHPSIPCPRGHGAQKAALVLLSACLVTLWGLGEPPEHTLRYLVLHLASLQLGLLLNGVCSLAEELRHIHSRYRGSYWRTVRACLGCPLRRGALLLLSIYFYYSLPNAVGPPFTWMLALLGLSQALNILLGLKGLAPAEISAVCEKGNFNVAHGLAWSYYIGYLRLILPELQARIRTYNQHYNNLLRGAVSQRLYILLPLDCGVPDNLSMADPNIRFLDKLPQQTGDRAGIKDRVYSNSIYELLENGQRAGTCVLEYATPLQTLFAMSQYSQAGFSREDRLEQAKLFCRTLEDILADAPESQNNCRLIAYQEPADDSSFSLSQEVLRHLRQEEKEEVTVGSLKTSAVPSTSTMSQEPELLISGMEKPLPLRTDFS
Test: ISG reporter induction in 293-Dual hSTING-R232 reporter cells (QUANTI-Blue)
Conditions: 293-Dual hSTING-R232 cells, overnight incubation
Entries annotated with measured EC50

mol: COc1cc2sc(C(=O)CCP(=O)(O)O)cc2c(F)c1OCCCOc1c(OC)cc2sc(C(=O)CC(C)(C)C(=O)O)cc2c1F
tested target: hSTING-R232 (Homo sapiens, UniProt Q86WV6, H232R)
EC50: > 0.15 µM
--
mol: COc1cc2sc(C(=O)CCC(=O)O)cc2c(F)c1OCCCOc1c(OC)cc2sc(C(=O)CCP(=O)(O)O)cc2c1F
tested target: hSTING-R232 (Homo sapiens, UniProt Q86WV6, H232R)
EC50: ≤ 0.05 µM
--
mol: COc1cc2sc(C(=O)CC(C)(C)C(=O)O)cc2c(F)c1OCCCOc1c(OC)cc2sc(C(=O)CS(=O)(=O)O)cc2c1F
tested target: hSTING-R232 (Homo sapiens, UniProt Q86WV6, H232R)
EC50: > 0.15 µM
--
mol: COc1cc2nc(C(=O)CCC(=O)O)ccc2c(F)c1OCCCOc1c(OC)cc2sc(C(=O)CC(C)(C)C(=O)O)cc2c1F
tested target: hSTING-R232 (Homo sapiens, UniProt Q86WV6, H232R)
EC50: ≤ 0.05 µM
--
mol: COc1cc2sc(/C=C/CC(=O)O)cc2c(F)c1OCCCOc1c(OC)cc2sc(/C=C/CC(=O)O)cc2c1F
tested target: hSTING-R232 (Homo sapiens, UniProt Q86WV6, H232R)
EC50: > 0.15 µM
--
mol: COc1cc2sc(C(=O)CC(C)(C)C(=O)O)cc2c(F)c1OCCCOc1c(OC)cc2sc(C(=O)CC(C)(C)P(=O)(O)O)cc2c1F
tested target: hSTING-R232 (Homo sapiens, UniProt Q86WV6, H232R)
EC50: > 0.15 µM
--
mol: COc1cc2sc(C(=O)CC(C)(C)C(=O)O)cc2c(F)c1OCCCOc1c(OC)cc2sc(C(=O)CC(C)(C)C(=O)NCCN)cc2c1F
tested target: hSTING-R232 (Homo sapiens, UniProt Q86WV6, H232R)
EC50: > 0.15 µM
--
mol: COC(=O)C(C)(C)CC(=O)c1cc2c(F)c(OCCCOc3c(OC)cc4sc(C(=O)CS(=O)(=O)O)cc4c3F)c(OC)cc2s1
tested target: hSTING-R232 (Homo sapiens, UniProt Q86WV6, H232R)
EC50: > 0.15 µM
--
mol: COC(=O)C(C)(C)CC(=O)c1cc2c(F)c(OCCCOc3c(OC)cc4sc(C(=O)CP(=O)(OC)OC)cc4c3F)c(OC)cc2s1
tested target: hSTING-R232 (Homo sapiens, UniProt Q86WV6, H232R)
EC50: > 0.15 µM
--
mol: COc1cc2sc(C(=O)CC(C)(C)C(=O)O)cc2c(F)c1OCCCOc1c(OC)cc2sc(C(=O)CC(C)(C)C(=O)NS(=O)(=O)CCN)cc2c1F
tested target: hSTING-R232 (Homo sapiens, UniProt Q86WV6, H232R)
EC50: > 0.15 µM
--
mol: COc1cc2sc(C(=O)CCS(=O)(=O)O)cc2c(F)c1OCCCOc1c(OC)cc2sc(C(=O)CC(C)(C)C(=O)O)cc2c1F
tested target: hSTING-R232 (Homo sapiens, UniProt Q86WV6, H232R)
EC50: > 0.15 µM
--
mol: COc1cc2sc(/C=C/CC(=O)O)cc2c(F)c1OCCCOc1c(OC)cc2sc(C(=O)CP(=O)(O)O)cc2c1F
tested target: hSTING-R232 (Homo sapiens, UniProt Q86WV6, H232R)
EC50: 0.05 to 0.15 µM
--
mol: COc1cc2sc(CCP(=O)(O)O)cc2c(F)c1OCCCOc1c(OC)cc2sc(C(=O)CC(C)(C)C(=O)O)cc2c1F
tested target: hSTING-R232 (Homo sapiens, UniProt Q86WV6, H232R)
EC50: > 0.15 µM
